assay: inhibitors of mutant huntingtin aggregation, primary screen, imaging, exon1htt(103Q)mCFP cells, high-content imaging (AID 483); settings: exon1htt(103Q)mCFP cell line, aggregate imaging, at 2 µM; measured here: cell count, toxicity;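 also: compound exposure lasted 3 days before fixation; percent of the per-plate median nuclei count of sample wells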
propertyMeasured: nuclei count (%)
Unit % implied. Number only.

Look over these answered cases.
O=C1c2ccccc2C(=O)N1CC(O)Cn1nnc2ccccc21 (centres undefined)
116
COc1ccc(S(=O)(=O)Nc2cc(C)on2)cc1OC
109

q: GET /values?readout=nuclei count&item= CCN1C(=O)C2(C(C#N)=C(N)Oc3n[nH]c(C(C)C)c32)c2ccccc21 (centres undefined)
a: 104

q: Any idea what its nuclei count is? The compound is O=S(=O)(Nc1ccn(-c2ccccc2)n1)c1ccc(Br)cc1
a: 98

q: What value of nuclei count has been reported for the following compound? CCCCNc1cc(C)oc(=O)c1C(C)=O
a: 97.3

q: # query: nuclei count of entry Cn1cc(C2NC(=O)c3c(sc4c3CCCC4)N2)c2ccccc21 (centres undefined)
a: 98.8

q: Fill blank: measured nuclei count of the compound Cn1nnc2cc(C(=O)N3CCCCCC3)ccc21 is ____.
a: 105

q: Can you look up the measured nuclei count of Cc1cc(OCC(=O)NCCO)cc(C)c1Cl for me?
a: 73.3

q: What value of nuclei count has been reported for the following compound? O=c1c(-c2ccc(Br)cc2)coc2c(CN3CCOCC3)c(O)ccc12
a: 102

q: Which nuclei count value belongs to CCOC(=O)c1c(C)c(C(=O)NCCN2CCOCC2)c(C)n1C ?
a: 88.4

q: Look up nuclei count for this compound: CCOC(=O)N1CCN(C(=O)CSc2nnc(-c3cccc(Cl)c3)o2)CC1
a: 10.5

q: Name the reported nuclei count value associated with the compound CC(=O)N1CCC(N(C(=O)Nc2ccc(C)c(C)c2)C2CCCC2)CC1
a: 52.8

q: Looking for the measured nuclei count of COc1cccc(NS(=O)(=O)c2ccc3[nH]cc(C(=O)NC4CC4)c(=O)c3c2)c1 , can you help?
a: 113

q: Which measured nuclei count value corresponds to CCOC(=O)C(NC(=O)Nc1ccccc1)(OCC)C(F)(F)F (centres undefined) ?
a: 97.9

q: Recorded nuclei count for CCOC(=O)N1CCN(S(=O)(=O)c2cc(Cl)ccc2Cl)CC1 , please?
a: 95.3

###

assay: inhibitors of TNFa-induced NFkB p65 translocation, primary screen, imaging, HUVEC, MLSMR starter and 10KST1 sets (AID 438); settings: HUVEC TNFa-induced p65 nuclear translocation; at 2 µM, 0% TNFa-plus-vehicle, 100% no-TNFa wells;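 also: compound added about 3h40 before a 20 min TNFalpha stimulation; signal is the nuclear over cytoplasmic p65 intensity ratio per well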
Activity calls are given as the source filed them.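 The calls were made as follows: active = inhibition above 20% together with a positive visual image hit; inconclusive = visual image hit but inhibition not above 20%; inactive = no visual image hit.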
Log the outcome using a class from Y = active, N = inactive

COc1cc(OC)cc(C(=O)N2c3ccc(F)cc3CCC2C)c1 (stereo not given)
N

q: Recorded test call requested for CCCCOCP(=O)(CCCC)COCCCC
a: N

q: // param item: Cc1ccc(CCNC(=O)C2CCCN2S(=O)(=O)c2ccc3c(c2)CCC(=O)N3)cc1 (stereo not given) ; yields the recorded call
a: N

###

test: inhibitors of Sendai virus-induced IRF3 signaling, primary screen, TLR/RLR signaling modifier project, cell-based, Sendai virus stimulus, luciferase, 10K MLSCN set (AID 602276); conditions: HEK293 RL24 IRF3 luciferase reporter, at 10 µM, stronger effect = higher value;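 also: firefly luciferase from ISG56 promoter only with Renilla not read in this screen; 0% = Sendai virus plus DMSO and 100% = medium plus DMSO without virus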
Activity calls are given as the source filed them.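 The calls were made as follows: active = inhibition at or above 50% at 10 µM; inactive = inhibition below 50%.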
propertyMeasured: inhibition

O=C(Cn1cnc2ccccc2c1=O)NCCC(=O)N1CCN(c2ccccc2)CC1
15.8% (inactive)
CCC(C)Nc1nc2c(c(=O)n(C)c(=O)n2C)n1Cc1ccc(F)cc1 (stereo not drawn)
15.9% (inactive)
CCOC(=O)CC12CN3CN(C1)CC(CC(=O)OCC)(C3)C2=O
-1.85% (inactive)

Now for another entry.
q: Can you look up the measured inhibition of O=C(Cn1cc2c(n1)CCCCC2)N1CCc2ccccc21 for me?
a: 7.59% (inactive)

###

molecular target: Alpha-2C adrenergic receptor (Homo sapiens) (UniProt P18825); assay: modulators of alpha2C/GIRK thallium flux, primary screen, cell-based, HEK293 alpha2C/GIRK1/2 (AID 624); conditions: thallium flux BTC fluorescence, at 10 µM, actives lie on both sides;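 also: slope of fluorescence ratio to pre-addition baseline per second over 15 to 24 s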
Sequence (P18825 whole entry, looked up): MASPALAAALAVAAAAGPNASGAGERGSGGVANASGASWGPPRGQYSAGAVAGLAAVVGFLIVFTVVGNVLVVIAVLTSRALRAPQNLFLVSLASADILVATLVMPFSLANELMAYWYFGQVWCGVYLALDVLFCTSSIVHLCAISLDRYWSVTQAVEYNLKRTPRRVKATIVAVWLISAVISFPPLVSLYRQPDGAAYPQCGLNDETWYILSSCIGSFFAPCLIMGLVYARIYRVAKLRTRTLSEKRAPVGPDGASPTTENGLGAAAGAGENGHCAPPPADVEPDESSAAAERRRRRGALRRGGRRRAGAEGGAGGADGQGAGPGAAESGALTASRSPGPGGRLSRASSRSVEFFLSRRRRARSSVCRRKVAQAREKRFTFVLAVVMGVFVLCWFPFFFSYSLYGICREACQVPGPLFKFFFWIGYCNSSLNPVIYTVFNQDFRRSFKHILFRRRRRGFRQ
propertyMeasured: slope
# respond with the number and nothing more

CCOC(=O)C1=C(O)CCn2c1nc1ccccc12
0.005
CCCCC(=O)NCCc1cc2ccc(OC)cc2[nH]c1=O
0.00611
COc1ccc(CNC(=O)c2cc3c(=O)n4ccccc4nc3n(Cc3ccco3)c2=N)cc1
0.0063
CCOC(=O)C(NC(=O)c1ccc(OC)cc1)(N1CCOCC1)C(F)(F)F (stereo unspecified)
0.00726
CCOc1ccc(N(C(C)=O)C2C=CS(=O)(=O)C2)cc1 (stereo unspecified)
0.00613
Cc1ccc(/C=c2\s/c(=C(/C#N)C(=O)N3CCCC3)n(Cc3ccco3)c2=O)s1
0.00315
CC(CCc1ccco1)NC(=O)Cn1ncc2c1-c1ccccc1OC2 (stereo unspecified)
0.00662
CCOC(=O)C1(CC)NC(c2cccc(F)c2)C2C(=O)N(CC)C(=O)C21 (stereo unspecified)
0.00451
C=CCSc1nc2sc(C)c(C)c2c(=O)[nH]1
0.00785
Cc1ccc(N2CCN(c3ccc(C)cc3)C(CC(=O)O)C2=O)cc1 (stereo unspecified)
0.00583

q: Can you look up slope on Alpha-2C adrenergic receptor (Homo sapiens) (UniProt P18825) for O=C(CN(C(=O)CCC(=O)Nc1nccs1)c1ccccc1F)NCC1CCCO1 (stereo unspecified) ?
a: 0.00439

###

Quick reference: nuclei count of the listed items.
assay: inhibitors of E-selectin induction by TNFa, primary screen, imaging, HUVEC, immunofluorescence, MLSMR starter and 10KST1 sets (AID 487); conditions: HUVEC TNFalpha-induced E-selectin immunofluorescence imaging, at 2 µM; measured here: cell number, toxicity;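 also: 100% = median nuclei count of all wells on the same plate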
Give the number; % is assumed, so skip it.

O=c1c[n+]([O-])c2ccccc2n1OCc1c(F)cccc1F
110

q: I'd like to know its nuclei count. The compound in question is CN(C)C(=O)c1ccc(COc2ccccc2Br)o1
a: 104

q: Reported nuclei count, compound COc1ccc(C2CC(c3ccccc3)Nc3nc(N)nn32)cc1 (stereo not given) : ____
a: 110

q: Can you share its nuclei count? I mean this compound: Fc1ccccc1Cn1nnc2c(-n3ccnc3)ncnc21
a: 106

q: Item under review: CCOC(=O)N1CCN(C(=O)CSc2cc(C)nc3c(-c4ccccc4OC)c(C)nn23)CC1 . Reported nuclei count?
a: 110

q: Quick one: nuclei count of COc1cc(OC)cc(C(=O)N2c3ccc(F)cc3CCC2C)c1 (stereo not given) ?
a: 103

q: Suppose we examine the compound N#Cc1c(N2CCOCC2)nc(-c2ccco2)c2c1CCCC2 ; what nuclei count value has been reported?
a: 96.6

q: Given the compound CCCCCn1c(CN2CCN(C)CC2)nc2c1c(=O)n(C)c(=O)n2C , what is its reported nuclei count?
a: 93.2

q: Any idea what nuclei count was measured for C=CCn1c(C2CC(=O)N(c3ccc(C)cc3)C2)nc2ccccc21 (stereo not given) ?
a: 177

q: What value of nuclei count has been reported for the following compound? S=c1[nH]nc(-c2cccc(Br)c2)o1
a: 120

q: Query (compound): CCOC(=O)N1CCN(c2c(N3CCc4ccccc4C3)c(=O)c2=O)CC1 ; field requested: nuclei count
a: 122

###

experiment: DUSP6 inhibitors restoring Erk phosphorylation by chemical complementation, primary imaging in DUSP6-transfected HeLa (AID 609); settings: HeLa MKP-3 transfected, phospho-Erk imaging KS statistic; measured here: cell density z-score; at 10 µM; cells stimulated with TPA for 15 min
propertyMeasured: z-score
Could you keep your reply to the number by itself?

Worked examples, 5 compounds total:
O=c1[nH]cnc2c1cnn2Cc1ccccc1
0.233
C/C(NC(=O)c1ccccc1F)=C1\C(=O)C[C@@H]2[C@H]1C2(C)C
-0.142
COc1ccccc1NC(=O)c1c(C)cc(=O)oc1C
-0.227
CCOC(=O)c1[nH]c2ccc(C)cc2c1N
-1.62
CCCCN(C(=O)CCC(=O)O)C1CC(=O)N(c2ccc(OCCC)cc2)C1=O (stereo unspecified)
-0.992

q: Which z-score value belongs to c1ccc2c(c1)CCOC2CNCCCN1CCCCC1 (stereo unspecified) ?
a: -0.992

###

experiment: inhibitors of TNFa-induced NFkB p65 translocation, primary screen, imaging, HUVEC, MLSMR starter and 10KST1 sets (AID 438); conditions: HUVEC TNFa-induced p65 nuclear translocation; at 2 µM, stronger effect = higher value, 0% TNFa-plus-vehicle, 100% no-TNFa wells;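 also: compound added about 3h40 before a 20 min TNFalpha stimulation; signal is the nuclear over cytoplasmic p65 intensity ratio per well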
# reported inhibition; entries follow
Field: numeric (%). Do not append units.

Solved entries:
COCCOC(=O)c1c(C)oc2ccc(OC(=O)COc3c(F)c(F)c(F)c(F)c3F)cc12
-3.3
O=C(c1ccco1)N1CCN(C(=O)c2sccc2-c2ccccc2)CC1
20.7
CCN(CC)CCCNc1oc(-c2cccc(Cl)c2)nc1C#N
-11.9

q: Item CCn1c(SCC(=O)c2ccc(F)cc2)nnc1-c1ccoc1C has what recorded inhibition?
a: -19.4

q: Item Cc1ccc(CCNC(=O)C2CCC(=O)N2C2CCCC2)cc1 (centres undefined) has what recorded inhibition?
a: -1.3

q: What measured inhibition goes with CCc1ccc(-c2cn3nc(C)c(C)nc3n2)cc1 ?
a: -0.3
